target: STE20-like serine/threonine-protein kinase (Homo sapiens, UniProt Q9H2G2)
Sequence (Q9H2G2 whole entry): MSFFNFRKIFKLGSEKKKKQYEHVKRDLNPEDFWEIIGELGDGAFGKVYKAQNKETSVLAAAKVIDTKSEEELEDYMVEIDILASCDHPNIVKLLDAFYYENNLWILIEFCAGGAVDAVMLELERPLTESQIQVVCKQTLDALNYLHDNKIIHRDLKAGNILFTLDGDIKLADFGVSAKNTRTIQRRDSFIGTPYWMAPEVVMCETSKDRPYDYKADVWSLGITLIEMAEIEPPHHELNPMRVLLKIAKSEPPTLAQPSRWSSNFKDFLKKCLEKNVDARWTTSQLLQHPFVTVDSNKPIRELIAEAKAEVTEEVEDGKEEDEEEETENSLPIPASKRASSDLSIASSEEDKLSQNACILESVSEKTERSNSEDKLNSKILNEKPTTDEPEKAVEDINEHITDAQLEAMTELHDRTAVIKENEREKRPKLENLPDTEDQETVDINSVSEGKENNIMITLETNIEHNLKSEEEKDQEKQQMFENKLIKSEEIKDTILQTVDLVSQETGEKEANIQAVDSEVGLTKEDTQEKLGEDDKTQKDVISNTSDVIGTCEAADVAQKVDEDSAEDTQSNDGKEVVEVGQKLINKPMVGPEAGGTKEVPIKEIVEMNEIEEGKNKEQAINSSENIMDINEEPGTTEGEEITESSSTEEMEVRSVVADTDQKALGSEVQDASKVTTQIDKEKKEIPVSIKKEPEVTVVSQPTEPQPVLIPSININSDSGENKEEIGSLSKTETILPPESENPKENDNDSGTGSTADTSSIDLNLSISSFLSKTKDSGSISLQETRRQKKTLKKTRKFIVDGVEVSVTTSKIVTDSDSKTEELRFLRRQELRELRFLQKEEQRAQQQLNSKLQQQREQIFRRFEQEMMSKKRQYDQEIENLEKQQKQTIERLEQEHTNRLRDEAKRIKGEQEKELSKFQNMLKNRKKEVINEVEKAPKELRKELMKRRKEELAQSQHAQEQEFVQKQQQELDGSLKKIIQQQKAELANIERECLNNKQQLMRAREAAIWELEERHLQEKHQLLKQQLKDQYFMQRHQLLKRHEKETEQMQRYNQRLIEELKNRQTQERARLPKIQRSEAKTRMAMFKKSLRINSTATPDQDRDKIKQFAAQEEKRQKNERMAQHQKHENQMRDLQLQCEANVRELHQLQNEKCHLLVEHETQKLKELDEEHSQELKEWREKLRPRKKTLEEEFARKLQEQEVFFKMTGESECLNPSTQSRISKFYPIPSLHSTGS

[
  {
    "Chemical smiles": "C=CC(=O)Nc1cccc(Nc2nc(Nc3ccc(N4CCN(C)CC4)cc3)nc3ccc(F)cc23)c1",
    "Unit string": "nM",
    "IC50": 892
  }
]

###

assay: Cytotoxicity against human A-431 cells harboring wild type EGFR assessed as reduction in cell viability measured after 72 hrs by MTT assay; type: toxicity, cell-based
Decision: IC50 at 72 h beneath 2000 nM gives Fulfilled; IC50 at 72 h meeting or exceeding 2000 nM gives Not fulfilled.

[
  {
    "Chemical smiles": "C=CC(=O)Nc1cccc(Nc2nc(Nc3ccc(N4CCC(N5CCN(C)CC5)CC4)cc3OC)nc3ccc(F)cc23)c1",
    "Label class": "Not fulfilled"
  },
  {
    "Chemical smiles": "C=CC(=O)Nc1ccccc1Nc1nc(Nc2ccc(N3CCN(C)CC3)cc2)nc2ccc(Cl)cc12",
    "Label class": "Not fulfilled"
  },
  {
    "Chemical smiles": "C=CS(=O)(=O)Nc1cccc(Nc2nc(Nc3ccc(N4CCN(C)CC4)cc3)nc3ccc(Cl)cc23)c1",
    "Label class": "Not fulfilled"
  },
  {
    "Chemical smiles": "CC(C)=CC(=O)Nc1cccc(Nc2nc(Nc3ccc(N4CCN(C)CC4)cc3)nc3ccc(Cl)cc23)c1",
    "Label class": "Not fulfilled"
  },
  {
    "Chemical smiles": "C=CC(=O)Nc1cccc(Nc2nc(Nc3ccc(N4CCN(C)CC4)cc3OC)nc3ccc(Cl)cc23)c1",
    "Label class": "Not fulfilled"
  },
  {
    "Chemical smiles": "C=CC(=O)Nc1cccc(Nc2nc(Nc3ccc(N4CCC(N5CCOCC5)CC4)cc3)nc3ccc(Cl)cc23)c1",
    "Label class": "Not fulfilled"
  },
  {
    "Chemical smiles": "C=CC(=O)Nc1cccc(Nc2nc(Nc3ccc(N(C)CCN(C)C)cc3)nc3ccc(F)cc23)c1",
    "Label class": "Not fulfilled"
  },
  {
    "Chemical smiles": "CCC(=O)Nc1cccc(Nc2nc(Nc3ccc(N4CCN(C)CC4)cc3)nc3ccc(Cl)cc23)c1",
    "Label class": "Not fulfilled"
  },
  {
    "Chemical smiles": "C=CC(=O)Nc1cccc(Nc2nc(Nc3ccc(N4CCN(C)CC4)cc3)nc3c2CN(C(=O)OC(C)(C)C)CC3)c1",
    "Label class": "Not fulfilled"
  },
  {
    "Chemical smiles": "C=CC(=O)Nc1cccc(Nc2nc(Nc3ccc(N4CCN(C)CC4)cc3)nc3ccc(C(F)(F)F)cc23)c1",
    "Label class": "Not fulfilled"
  },
  {
    "Chemical smiles": "C=CC(=O)Nc1cccc(Nc2nc(Nc3ccc(N4CCC(N(C)C)CC4)cc3OC)nc3ccc(F)cc23)c1",
    "Label class": "Not fulfilled"
  },
  {
    "Chemical smiles": "C=CC(=O)Nc1cccc(Nc2nc(Nc3ccc(N4CCN(C)CC4)cc3)nc3ccc(F)cc23)c1",
    "Label class": "Not fulfilled"
  },
  {
    "Chemical smiles": "C=CC(=O)Nc1cccc(Nc2nc(Nc3ccc(N4CCN(C)CC4)cc3)nc3ccc(C)cc23)c1",
    "Label class": "Fulfilled"
  },
  {
    "Chemical smiles": "C=CC(=O)Nc1cccc(Nc2nc(Nc3ccc(N4CCN(C)CC4)c(F)c3)nc3ccc(Cl)cc23)c1",
    "Label class": "Not fulfilled"
  },
  {
    "Chemical smiles": "C=CC(=O)Nc1cccc(Nc2nc(Nc3ccc(N4CCC(N(C)C)CC4)cc3)nc3ccc(F)cc23)c1",
    "Label class": "Fulfilled"
  },
  {
    "Chemical smiles": "C=CC(=O)Nc1cccc(Nc2nc(Nc3ccc(N4CCN(C)CC4)cc3)nc3ccc(Cl)cc23)c1",
    "Label class": "Fulfilled"
  }
]
